Values were extracted from patent US20240150293A1.

- experimental-target: Cy5-labelled Mcl1 (amino acids 171-321) C286S protein (UniProtKB Q07820) (Homo sapiens (Human), UniProt Q07820, C286S)
- Sequence (Q07820 171-321 C286S): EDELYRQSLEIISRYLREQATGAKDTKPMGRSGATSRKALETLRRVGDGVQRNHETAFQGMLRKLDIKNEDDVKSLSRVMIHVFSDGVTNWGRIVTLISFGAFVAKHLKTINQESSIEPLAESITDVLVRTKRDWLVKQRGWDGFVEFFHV
- method-description: Inhibition of Mcl-1 by the fluorescence quenching assay (Example A, Method B)
- Type: binding
measured-metric: Ki (nM)

molecule	measured-metric	endpoint-value
C[C@@H](CNc1ccnc2ccsc12)C[C@H]1Cc2ccccc2[C@]12CC[C@@](Nc1cccc(Cl)c1)(C(=O)O)CC2	Ki	7.36
C[C@@H](COc1ccnc2c1[C@H](C)CCC2)C[C@H]1Cc2ccccc2[C@]12CC[C@@](Nc1ccc(Cl)c(Cl)c1)(C(=O)O)CC2	Ki	2.01
C[C@@H](COc1ccnc2c1[C@H](C)CCC2)C[C@H]1Cc2ccccc2[C@]12CC[C@](C(=O)O)(N1CCc3c(Cl)cccc31)CC2	Ki	3.23
C[C@@H](COc1ccnc2c1[C@@H](C)CC[C@H]2C)C[C@H]1Cc2ccccc2[C@]12CC[C@@](Nc1cccc(Cl)c1)(C(=O)O)CC2 (single isomer, unassigned) [Example 658]	Ki	34.2
C[C@@H](COc1ccnc2c1[C@H](C)CCC2)C[C@H]1Cc2cc(Cl)ccc2[C@]12CC[C@@](Nc1cccc(Cl)c1)(C(=O)O)CC2	Ki	0.177
C[C@@H](COc1ccnc2c1[C@H](C)CCC2)C[C@H]1Cc2cc(F)ccc2[C@]12CC[C@@](Nc1cccc(Cl)c1)(C(=O)O)CC2	Ki	0.109
C[C@@H](COc1ccncc1C1CC1)C[C@H]1Cc2ccccc2[C@]12CC[C@@](Nc1cccc(Cl)c1)(C(=O)O)CC2	Ki	10.4
C[C@@H](COc1ccnc2c1[C@H](C)CCC2)C[C@H]1Cc2cc3c(cc2[C@]12CC[C@@](Nc1ccc(F)c(Cl)c1)(C(=O)O)CC2)OCO3	Ki	0.0736
O=C(O)[C@]1(Nc2cccc(Cl)c2)CC[C@@]2(CC1)c1ccccc1CC2CC(F)(F)COc1ccnc2c1CCC2 (some centres unmarked)	Ki	63.8
C[C@@H]1CCCc2nccc(OCC(CF)CC3=Cc4ccccc4[C@]34CC[C@@](Nc3cccc(Cl)c3)(C(=O)O)CC4)c21 (single isomer, unassigned) [Example 514]	Ki	1.84
C[C@@H](COc1ccnc2c1[C@H](C)CCC2)C[C@H]1Cc2cc3c(cc2[C@]12CC[C@@](Nc1cccc(Cl)c1)(C(=O)O)CC2)OC(F)(F)O3	Ki	0.228
C[C@@H](COc1ccnc2c1[C@H](C)CCC2)C[C@H]1Cc2ccc(-c3ccsc3)cc2[C@]12CC[C@@](Nc1cccc(Cl)c1)(C(=O)O)CC2	Ki	0.386
C[C@@H](COc1ccnc2c1[C@@H](C)CC[C@@H]2C)C[C@H]1Cc2ccccc2[C@]12CC[C@@](Nc1cccc(Cl)c1)(C(=O)O)CC2	Ki	80.7
C[C@@H](COc1ccnc2c1CCCC2C(F)F)C[C@H]1Cc2ccccc2[C@]12CC[C@@](Nc1cccc(Cl)c1)(C(=O)O)CC2 (single isomer, unassigned) [Example 683]	Ki	106
C[C@@H](COc1ccnc2c1[C@H](C)CCC2)C[C@H]1Cc2ccccc2[C@]12CC[C@@](Nc1cc(Cl)ccc1F)(C(=O)O)CC2	Ki	27.7
C[C@@H](COc1ccnc2c1[C@H](C)CCC2)C[C@H]1Cc2c(Cl)c3c(cc2[C@]12CC[C@@](Nc1cccc(Cl)c1)(C(=O)O)CC2)OCO3	Ki	0.25
C[C@@H](COc1ccnc2c1CCCC2)C[C@H]1Cc2ccccc2[C@]12CC[C@@](Nc1cccc(Cl)c1)(C(=O)O)CC2	Ki	4.04
O=C(O)[C@]1(Nc2cccc(Cl)c2)CC[C@@]2(CC1)c1ccccc1CC2CC(COc1ccnc2c1CCCC2)C(F)F (single isomer, unassigned) [Example 513]	Ki	27.9
C[C@H]1Cc2nccc(OC[C@H](C)C[C@H]3Cc4ccccc4[C@]34CC[C@@](Nc3cccc(Cl)c3)(C(=O)O)CC4)c2[C@@H](C)C1	Ki	52.5
C[C@@H](CNc1ccncc1)C[C@H]1Cc2ccccc2[C@]12CC[C@@](Nc1cccc(Cl)c1)(C(=O)O)CC2	Ki	350
C[C@@H](COc1ccnc2c1[C@@H](C(F)(F)F)CCC2)C[C@H]1Cc2ccccc2[C@]12CC[C@@](Nc1cccc(Cl)c1)(C(=O)O)CC2	Ki	65.6
Cc1c(Cl)cccc1N[C@]1(C(=O)O)CC[C@]2(CC1)c1cc3c(cc1C[C@@H]2C[C@@H](C)COc1ccnc2c1[C@H](C)CCC2)OCO3	Ki	0.0847
COc1cc2c(cc1C)C[C@H](C[C@@H](C)COc1ccnc3c1[C@H](C)CCC3)[C@]21CC[C@](Nc2cccc(Cl)c2)(C(=O)O)CC1	Ki	0.0908
